- System: U2OS
- Assay Notes: mean cytoplasmic OPP incorporation (global translation) relative to DMSO (% of DMSO); higher = more protein synthesis
- Condition Label: 10 µM; 24 h
Structures can show the parent of a compound that is named as a salt. The full ranking holds about 3,100 compounds; the median of “mean cytoplasmic OPP incorporation (global translation) relative to DMSO” is about 100, and the lowest 2% start at about 56. Many of the other results were omitted from the sample, so the lowest values are more common in it than they were.

Compound	Test Target	mean cytoplasmic OPP incorporation
COC1CCC(C(=O)c2ccc3nc4c(cc3c2)CCCO4)CC1 (stereo not drawn)	U2OS	98.8
O=C(O)COc1ccc(OCCNC[C@H](O)COc2ccccc2)cc1 [ICI 215,001 hydrochloride]	U2OS	100
O=c1[nH]c2cc(Cl)ccc2c(O)c1-c1cccc(Oc2ccccc2)c1	U2OS	103

----------
Recorded measurements of mean cytoplasmic OPP incorporation, one per entry
- Test system: U2OS
- Assay Notes: mean cytoplasmic OPP incorporation (global translation) relative to DMSO (% of DMSO); higher = more protein synthesis
- Condition Label: 10 µM; 24 h
Counter-ions that a name gives are not always drawn. The full ranking holds about 3,100 compounds; the median of “mean cytoplasmic OPP incorporation (global translation) relative to DMSO” is about 100, and the lowest 2% start at about 56. Many of the other results were omitted from the sample, so the lowest values are more common in it than they were.

Compound	mean cytoplasmic OPP incorporation
O=C(O)c1ccc(N2C(=O)C(=Cc3ccccc3)SC2=S)cc1	102
O=C1NC(=O)/C(=C/c2ccc3nccc(-c4ccncc4)c3c2)S1	90.1
COc1cc(C(=O)NCc2ccc(OCCN(C)C)cc2)cc(OC)c1OC [Trimethobenzamide hydrochloride]	102
C=CC(=O)c1ccc2ccccc2c1	100
C[C@]12CC[C@@H](O)C[C@@H]1CC[C@@H]1[C@@H]2CC[C@]2(C)C=CC[C@@H]12 [3a, 5a-Androstenol]	97.3
NCCCCCc1c[nH]cn1 [Impentamine dihydrobromide]	99.3
CSc1nc(NC2CCCC2)c([N+](=O)[O-])c(NC2CCCC2)n1	101
CCC(C)[C@H](NS(=O)(=O)c1cccc2ccccc12)C(=O)N[C@H](C=O)Cc1c[nH]c2ccccc12 (stereo partly specified)	102
CC(=O)OCOC(c1cc([N+](=O)[O-])ccc1Oc1ccc(Br)cc1)P(=O)(OCOC(C)=O)OCOC(C)=O (stereo unspecified)	101
C=C(C)[C@@H](CC=C(C)C)C[C@@]12C[C@@H](CC=C(C)C)C(C)(C)[C@@](CC=C(C)C)(C(=O)C(C(=O)c3ccc(O)c(O)c3)=C1O)C2=O [Garcinol]	100
CC(NC(=O)C(Cc1ccccc1)NC(=O)OCc1ccccc1)C(=O)CF (stereo unspecified)	101
C/C(=N\NC(=O)C1C(=O)NCC1c1ccccc1)c1cccc(Br)c1 (stereo unspecified)	102
Cl/C(=C\n1cncn1)c1ccc(Cl)cc1Cl [Loreclezole hydrochloride]	98.7
CC(C)Oc1ccc2c(=O)c3cc(C(=O)O)ccc3oc2c1	102
CCCn1c(=O)c2[nH]c(-c3ccccc3)nc2n(CCC)c1=O [1,3-Dipropyl-8-phenylxanthine]	99.1
CNC(=O)c1ccccc1Nc1nc(Nc2ccc(N3CCOCC3)cc2OC)ncc1Cl	90.7
